Entry source: patent US6919086B1

Tested on: IgE antibodies of allergic patients
Assay: EAST inhibition test (IgE reactivity / allergenicity)
Type: binding, human
Details: relative to native Phl p 5b at 25% inhibition; individual serum II/17
I'd appreciate it if you could supply Allergenic potency (Prel) 25% values for the items below.

## Task Specify reported Allergenic potency (Prel) 25% for the molecule shown: n Phl p 5b: purified natural allergen Phl p 5b of timothy grass (Phleum pratense), reference of the EAST inhibition (protein) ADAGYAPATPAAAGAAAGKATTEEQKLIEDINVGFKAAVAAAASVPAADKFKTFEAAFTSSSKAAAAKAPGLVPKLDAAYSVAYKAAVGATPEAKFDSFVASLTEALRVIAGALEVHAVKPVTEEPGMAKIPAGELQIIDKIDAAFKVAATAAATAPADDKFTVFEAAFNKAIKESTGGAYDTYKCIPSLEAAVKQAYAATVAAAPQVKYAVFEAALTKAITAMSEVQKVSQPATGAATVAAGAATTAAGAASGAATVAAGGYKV
## Result 1.000

## Task Specify reported Allergenic potency (Prel) 25% for the molecule shown: rPhl p 5b deletion mutant DM3 (deletion A154-T177, A220T) (protein) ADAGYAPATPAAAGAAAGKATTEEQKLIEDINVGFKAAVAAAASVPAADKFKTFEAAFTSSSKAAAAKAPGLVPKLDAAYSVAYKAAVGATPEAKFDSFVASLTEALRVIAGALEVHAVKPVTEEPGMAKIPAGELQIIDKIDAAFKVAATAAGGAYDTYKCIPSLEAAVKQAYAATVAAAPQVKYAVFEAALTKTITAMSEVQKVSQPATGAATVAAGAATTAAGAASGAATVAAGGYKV
## Result 0.038
